tested on: UACC-257 melanoma; experiment: NCI tumour cell line growth inhibition, 48 h; in the data active = GI50 below about 0.43 µM; inactive = the rest
Your answer must be one of the following: 1.0 = active, 0.0 = inactive

Solved cases below.
{"Compound": "O=C([CH-]C(=O)c1ccccc1)c1ccccc1.[C-]#[O+].[C-]#[O+].[Ir]", "Category Label": 0.0}
{"Compound": "Clc1ccc(-c2cc(-c3ccccc3)nc(N3CCN(CCCNc4ccnc5cc(Cl)ccc45)CC3)n2)cc1", "Category Label": 0.0}
{"Compound": "O=C(Nc1ccc(OS(=O)(=O)c2ccc(F)cc2)cc1)C12CC3CC(CC(C3)C1)C2", "Category Label": 0.0}

Now consider the entry below.
Hi, sorry to bother you, what did the test record for COc1ccc(C(=O)/C=C/c2sc(Cl)nc2Cl)cc1 ?
0.0

The reported measurements were obtained from PubChem BioAssay (NCI).
